Tested on: IGROV1 ovarian
Assay: NCI-60 one-dose screen, 48 h
Conditions: 10 µM unless noted
The panel holds about 83,000 compounds, 20% with a hit somewhere; the sample as a whole holds those more often. Activity calls are given as the source filed them. How the source made its calls: active means growth percent below 10; inactive means the rest.
Outcomes: active, inactive

[[record]]
molecule = "O=C1CSC(c2ccc(O)cc2)N1c1nnc(Cn2cnnc2)o1 (stereo unspecified)"
test_system = "IGROV1 ovarian"
assigned_category = "inactive"

[[record]]
molecule = "CC1(C)CC(=O)c2c(ccc(C(=O)C[C@H](N)CO)c2N)O1"
test_system = "IGROV1 ovarian"
assigned_category = "inactive"

[[record]]
molecule = "O=C1c2cccc3c(-c4ccc(-c5nc6c7ccccc7c7ccccc7c6[nH]5)cc4)ccc(c23)C(=O)N1CCN1CCNCC1"
test_system = "IGROV1 ovarian"
assigned_category = "inactive"

[[record]]
molecule = "CCOc1cc(N)ccc1C(=O)NCCCN(CC)CC"
test_system = "IGROV1 ovarian"
assigned_category = "inactive"

[[record]]
molecule = "CCCCNC(=O)c1cc(NCc2cc(O)ccc2O)ccc1O"
test_system = "IGROV1 ovarian"
assigned_category = "inactive"

[[record]]
molecule = "Cn1cc(Nc2nccc(-c3ccc(N4CCCC4)c(C#N)c3)n2)cn1"
test_system = "IGROV1 ovarian"
assigned_category = "inactive"

[[record]]
molecule = "Cc1nc(Nc2ccccn2)sc1C(=O)/C=C/c1ccc(Br)cc1"
test_system = "IGROV1 ovarian"
assigned_category = "inactive"

[[record]]
molecule = "Nc1ccc(-c2cc3c(Nc4ccc(OCc5cccc(F)c5)c(Cl)c4)ncnc3s2)cc1"
test_system = "IGROV1 ovarian"
assigned_category = "inactive"

[[record]]
molecule = "CNC(=O)c1c(NC(=O)c2ccc(C(C)(C)C)cc2)sc2c1CCC(=O)C2"
test_system = "IGROV1 ovarian"
assigned_category = "active"

[[record]]
molecule = "CC(=O)OCCc1ccccc1"
test_system = "IGROV1 ovarian"
assigned_category = "inactive"

[[record]]
molecule = "CNCCNc1nc2ccccc2c2c(=O)c3cc(F)ccc3oc12"
test_system = "IGROV1 ovarian"
assigned_category = "inactive"


###

Test system: 786-0 renal
Experiment: NCI-60 one-dose screen, 48 h (100 = growth as untreated, 0 = no growth, -100 = all killed)
Conditions: 10 µM unless noted
Compounds without any hit were thinned out: in the full panel of roughly 83,000, 20% have a hit.
Quantity: growth (%)

[[record]]
compound = "CCCCN(Cc1ccc(C(=O)NO)cc1)C(=O)Nc1ccc(OCCCCCCCCCn2cc(CCCCC(=O)N[C@H](C(=O)N3C[C@H](O)C[C@H]3C(=O)NCc3ccc(-c4scnc4C)cc3)C(C)(C)C)nn2)cc1"
test_system = "786-0 renal"
recorded_measurement = 69.8

[[record]]
compound = "CCOc1cc(C2C(Cl)C(=O)N2n2cnnc2)ccc1O (stereo not given)"
test_system = "786-0 renal"
recorded_measurement = 92.7

[[record]]
compound = "Cc1nn(Cc2ccccc2)cc1C(=O)Nc1sc2c(c1C(N)=O)CCC(=O)C2"
test_system = "786-0 renal"
recorded_measurement = 70.1

[[record]]
compound = "COc1cc(-c2ncn(/C=C\\c3nnco3)n2)cc(C(F)(F)F)c1"
test_system = "786-0 renal"
recorded_measurement = 5.1

[[record]]
compound = "Cc1ccc2c(n1)C(=O)C(Oc1ccc(F)cc1)=CC2=O"
test_system = "786-0 renal"
recorded_measurement = 107

[[record]]
compound = "CN(C)c1ccc(/C=N/NC(=O)COc2cc(=O)n(C)c3ccccc23)cc1"
test_system = "786-0 renal"
recorded_measurement = 105

[[record]]
compound = "Nc1nc(N)c(-c2ccc(Cl)cc2)c(/C=C/c2ccc([N+](=O)[O-])cc2)n1"
test_system = "786-0 renal"
recorded_measurement = 99.3

[[record]]
compound = "CCN(CC)N=Nc1nn(C(=O)Nc2ccc(Cc3ccccc3)cc2)c2ccc(Cl)cc12"
test_system = "786-0 renal"
recorded_measurement = 59.5

[[record]]
compound = "CC(C)c1ccc(C(=O)OC(=O)c2ccc(C(C)C)cc2)cc1"
test_system = "786-0 renal"
recorded_measurement = 95.8

[[record]]
compound = "O=C(/C=C/C12c3ccccc3C(c3ccccc31)C1C(=O)N(c3ccccc3)C(=O)C12)c1ccccc1 (stereo not given)"
test_system = "786-0 renal"
recorded_measurement = 3.15


###

System: SK-OV-3 ovarian
Experiment: NCI-60 one-dose screen, 48 h
Conditions: 10 µM unless noted
About 83,000 compounds went through this panel and 20% of them were active in at least one assay; those are over-represented in the sample as a whole. Activity calls are given as the source filed them. How the source made its calls: active means growth percent below 10; inactive means the rest.
Possible outcomes: 1 (active), 0 (inactive)

[[record]]
compound = "COC(=O)CCCNC(=O)C(=O)c1c(O)c(O)c(C(C)C)c2cc(C)c(-c3c(C)cc4c(C(C)C)c(O)c(O)c(C(=O)C(=O)NCCCC(=O)OC)c4c3O)c(O)c12"
test_system = "SK-OV-3 ovarian"
assigned_category = 1

[[record]]
compound = "C=CCN1C(=O)[C@]2(SC1=S)[C@H](c1cccc(Cl)c1)CN(C)[C@]21C(=O)NC2C=CC(Cl)=C[C@H]21 (some centres not stated)"
test_system = "SK-OV-3 ovarian"
assigned_category = 0

[[record]]
compound = "CCNCCNc1cc(-c2ccc(C#N)cc2)c(C#N)c2nc3ccccc3n12"
test_system = "SK-OV-3 ovarian"
assigned_category = 0

[[record]]
compound = "Cc1nc2ccc(C(=O)NCc3cc(C(=O)O)c(C)o3)cc2nc1C"
test_system = "SK-OV-3 ovarian"
assigned_category = 0

[[record]]
compound = "COC(=O)[C@]12CC[C@@H](C)[C@H](C)[C@@H]1C1=CC[C@@H]3[C@@]4(C)C(C=O)=C[C@@](C)(CO)C4=CC[C@@]3(C)[C@]1(C)CC2"
test_system = "SK-OV-3 ovarian"
assigned_category = 0

[[record]]
compound = "CCOc1ccc2nc(-c3cccc(OCC(=O)NC(C)C)c3)nc(Nc3ccc(-c4cn[nH]c4)cc3)c2c1"
test_system = "SK-OV-3 ovarian"
assigned_category = 0

[[record]]
compound = "Cc1cc(=O)[nH]c(N/N=C/c2cc(Br)ccc2O)n1"
test_system = "SK-OV-3 ovarian"
assigned_category = 0

[[record]]
compound = "CCN1CCN(c2ccc(Nc3cc(-c4cccnc4Nc4c(Cl)c(OC)cc(OC)c4Cl)ncn3)cc2)CC1"
test_system = "SK-OV-3 ovarian"
assigned_category = 0

[[record]]
compound = "CN(CCCCCCCCNc1ccnc2ccccc12)Cc1ccc(-c2ccc(-c3ccc(C#N)cc3)s2)cc1"
test_system = "SK-OV-3 ovarian"
assigned_category = 1

[[record]]
compound = "COc1ccc(/C(C)=C(\\c2ccc(Cl)cc2)c2ccc(OCCN3CCCCCC3)cc2)cc1F"
test_system = "SK-OV-3 ovarian"
assigned_category = 0

[[record]]
compound = "c1ccc2[nH]c(SSc3nc4ncncc4[nH]3)nc2c1"
test_system = "SK-OV-3 ovarian"
assigned_category = 0

[[record]]
compound = "CCC(O)(C(c1ccccc1)c1ccccn1)C(c1ccccc1)c1ccccn1 (configuration not stated)"
test_system = "SK-OV-3 ovarian"
assigned_category = 0

[[record]]
compound = "C=C1c2c(C)nn(-c3ccc(N)cc3)c2N(C)C23CC1C1(C)c4c(C)nn(-c5ccc(N)cc5)c4N(C)C(C)(CC12)C3 (configuration not stated)"
test_system = "SK-OV-3 ovarian"
assigned_category = 0

[[record]]
compound = "Cn1cc(Nc2nccc(-c3ccc(N4CCCC4)c(C#N)c3)n2)cn1"
test_system = "SK-OV-3 ovarian"
assigned_category = 0

[[record]]
compound = "Cc1nc(Nc2ccc(S(=O)(=O)Nc3cc(C)on3)cc2)c2ccccc2n1"
test_system = "SK-OV-3 ovarian"
assigned_category = 0

[[record]]
compound = "CCCCCOC(=O)c1cccc(NC(=O)CN(CC)CC)c1"
test_system = "SK-OV-3 ovarian"
assigned_category = 0

[[record]]
compound = "CN1C[C@@H](c2ccc(Cl)cc2)[C@]2(NC(=S)N(c3ccccc3)C2=O)[C@@]12C(=O)NC1C=CC(Br)=C[C@H]12 (some centres not stated)"
test_system = "SK-OV-3 ovarian"
assigned_category = 0

[[record]]
compound = "CC(C)(C)Nc1c(-c2c3ccccc3cc3ccccc23)nc2ccccn12"
test_system = "SK-OV-3 ovarian"
assigned_category = 0

[[record]]
compound = "COc1ccc(-c2cn(-c3cccc(C(=O)/C=C/c4cc(OC)c(OC)c(OC)c4)c3)c(=O)[nH]2)cc1"
test_system = "SK-OV-3 ovarian"
assigned_category = 0

[[record]]
compound = "CCOC(=O)c1c2c(c(C)n1C)-c1nn(Cc3ccc(OC)cc3)cc1CC2"
test_system = "SK-OV-3 ovarian"
assigned_category = 0

[[record]]
compound = "C=C1c2c(C)nn(-c3ccc(O)cc3)c2N(C)C23C[C@@H]1C1(C)c4c(C)nn(-c5ccc(O)cc5)c4N(C)C(C)(C[C@H]12)C3 (some centres not stated)"
test_system = "SK-OV-3 ovarian"
assigned_category = 0

[[record]]
compound = "CC(=O)C(C(C)=O)c1nc2sc3cc(Cl)ccc3n2c(=N)c1C#N"
test_system = "SK-OV-3 ovarian"
assigned_category = 0

[[record]]
compound = "COc1ccc(/C=C2\\C=C(c3ccccc3)N(CCc3ccccc3)C2=O)cc1OC"
test_system = "SK-OV-3 ovarian"
assigned_category = 1

[[record]]
compound = "O=C1c2ccccc2C(=O)c2cc(Cn3cc[n+](Cc4ccc5ccccc5c4)c3)ccc21"
test_system = "SK-OV-3 ovarian"
assigned_category = 0

[[record]]
compound = "COc1ccc(C2=NC(=O)NC2c2ccc(OC)cc2)cc1 (configuration not stated)"
test_system = "SK-OV-3 ovarian"
assigned_category = 0

[[record]]
compound = "Clc1ccc(-c2nc(NCCc3ccccc3)nc3c(NCCc4ccccc4)cnn23)cc1"
test_system = "SK-OV-3 ovarian"
assigned_category = 0

[[record]]
compound = "COc1ccc(/C=N/NC(=O)Cn2c(-c3ccc(S(C)(=O)=O)cc3)nc3cc(Cl)ccc32)cc1"
test_system = "SK-OV-3 ovarian"
assigned_category = 0

[[record]]
compound = "CC[C@@H](C[C@H](CCO)c1ccccc1)c1cc2ccccc2o1"
test_system = "SK-OV-3 ovarian"
assigned_category = 0

[[record]]
compound = "CSc1nc2sc3cc(Cl)ccc3n2c(=N)c1C#N"
test_system = "SK-OV-3 ovarian"
assigned_category = 0

[[record]]
compound = "CCNCCNc1cc(-c2ccc(Cl)cc2)c(C#N)c2nc3ccccc3n12"
test_system = "SK-OV-3 ovarian"
assigned_category = 0

[[record]]
compound = "C[C@@H]1CC[C@@H]2[C@@H]1[C@H](OC(=O)c1ccc3ccccc3c1)[C@]1(C3CCCCC3)C[C@@H](OC(=O)CO)[C@@]2(C)O1"
test_system = "SK-OV-3 ovarian"
assigned_category = 0

[[record]]
compound = "O=[N+]([O-])c1ccc(-c2cc3c(Nc4ccc(OCc5cccc(Cl)c5)c(Cl)c4)ncnc3s2)cc1"
test_system = "SK-OV-3 ovarian"
assigned_category = 0

[[record]]
compound = "Cc1nc2ccccc2c(/C=C/c2ccc(Cl)cc2)c1C(=O)/C=C/c1ccc(Cl)cc1"
test_system = "SK-OV-3 ovarian"
assigned_category = 0

[[record]]
compound = "Cn1cc(-c2ccc3ncc(-c4ccc(CC(=O)Nc5cc(C(C)(C)C)nn5C)cc4)cc3c2)cn1"
test_system = "SK-OV-3 ovarian"
assigned_category = 0

[[record]]
compound = "CC(c1ccc(-n2cccn2)cc1)c1cnc(N2CCc3ccc(C(N)=O)cc3C2)s1 (configuration not stated)"
test_system = "SK-OV-3 ovarian"
assigned_category = 0

[[record]]
compound = "CCOC(=O)Cc1csc2nc(-c3ccccc3)nn12"
test_system = "SK-OV-3 ovarian"
assigned_category = 0

[[record]]
compound = "COC(=O)/C(=C\\c1ccc(OC)cc1)C(=O)N1c2ccccc2Sc2ccccc21"
test_system = "SK-OV-3 ovarian"
assigned_category = 0

